Data provenance is patent US20260116991A1.

# TESTED_TARGET: T1, monkey GPC3 on HEK293T-monkey GPC3 cells (monkey)
# T1 construct: whole, on cells
# ASSAY_NAME: FACS on HEK293T-monkey GPC3 cells;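 further: flow cytometry binding of test antibodies to the cells, read as mean fluorescence intensity, with half-maximal concentration taken from fitted curves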
PROPERTY_MEASURED: pEC50
Numbers only, as −log10 of the molar value.

Give the measured pEC50 of F3.38.7 (antibody, human IgG1, kappa, V domains shown, Human-murine chimeric antibody) VH: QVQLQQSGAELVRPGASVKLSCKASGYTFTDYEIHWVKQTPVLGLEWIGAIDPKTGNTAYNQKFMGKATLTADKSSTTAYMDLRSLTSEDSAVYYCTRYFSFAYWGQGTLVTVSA VL: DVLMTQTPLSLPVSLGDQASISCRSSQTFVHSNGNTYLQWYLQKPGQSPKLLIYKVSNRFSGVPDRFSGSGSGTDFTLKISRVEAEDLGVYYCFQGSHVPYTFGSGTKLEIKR .
9.07
